B1: TPR t1 (parent)
chain: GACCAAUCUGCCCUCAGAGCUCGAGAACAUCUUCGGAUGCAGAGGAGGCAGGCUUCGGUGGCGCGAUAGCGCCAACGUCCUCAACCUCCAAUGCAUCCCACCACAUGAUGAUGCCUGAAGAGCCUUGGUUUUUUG

Variants of: B1
TEST DESCRIPTION: polymerase ribozyme fitness, log enrichment relative to wild type (log ratio); higher = more active; in vitro selection for triplet polymerase activity
Entries and their polymerase ribozyme fitness (log ratio) values follow.
READOUT: polymerase ribozyme fitness (log ratio)

# VARIANT STRING, QUANTITATIVE RESULT
rows = [
    ("A6U C62A A105C", -4),
    ("G58C G69A C123A", -3.42),
    ("G51A C56G C124U", -1.06),
    ("G60A U112C", 1.25),
    ("G44U C64G", -7.29),
    ("U9C C15G A43U", -1.5),
    ("G57C G135U", -0.876),
    ("A5U G47C C62U G113C A118U", -4.96),
    ("U78G G110U G127U", -2.47),
    ("G60C C86U U106A", -0.567),
    ("U33A G61A U87A U133G", -4.05),
]
